test system: SNB-75; assay: NCI tumour cell line growth inhibition, 48 h
The source made the active and inactive calls. Rule as the data show it: active = GI50 up to about 1.1 µM and inactive = higher.
Possible outcomes: active, inactive

compound	classification
COc1ccc(N[S+]([O-])C2CCCCC2)cc1 (stereo unspecified)	inactive
COc1ccc2nc3cccc([N+](=O)[O-])c3c(NCCO)c2c1	active
O=C1c2ccccc2CC1C1(O)C(=O)Nc2c(Cl)cc(Cl)cc21 (stereo unspecified)	inactive
OCCCNCc1ccncc1	inactive
Clc1ccc(SCCSCCCCCCCCCCSCCSc2ccc(Cl)cc2)cc1	inactive
O=c1cc(CNC2CCCC2)[nH]c(=O)[nH]1	inactive

----------
system: HOP-62; test: NCI tumour cell line growth inhibition, 48 h
Where a name gives a salt, the structure may show the parent alone. Activity calls are given as the source filed them. Rule as the data show it: active = GI50 up to about 1.1 µM and inactive = higher.
Outcomes: active, inactive

molecule	assay-target	classification
CC1CC2=C(C1)C(C1(C)C(=O)CC3C(C1=O)C3(C)C)C(C)C2=O (stereo not given)	HOP-62	inactive
CN(C)CCOC(=O)COc1ccc(Cl)cc1 [CENTROPHENOXINE HYDROCHLORIDE]	HOP-62	inactive
Cc1cc(S(=O)(=O)Nc2nc(-c3ccccn3)n[nH]2)c(S)cc1Cl	HOP-62	inactive
COc1cc(Nc2cc(Cl)cc(Cl)c2)nc(N)n1	HOP-62	inactive
CC(C)C[S+]1C2=C(CC(C)(C)CC2=O)[N-]c2ccccc21 (stereo not given)	HOP-62	inactive
COc1cc2c(c(OC)c1OC)-c1ccc(SC)c(=O)cc1[C@@H](NC(=O)c1ccc(C#N)cc1)CC2	HOP-62	active
C/N=C(\SC)N(C)c1nc(=[N+](C)C)ss1.[O-][Cl+3]([O-])([O-])[O-]	HOP-62	inactive
CN(C)CC1CCCC/C1=N/OC(=O)c1ccc(Cl)cc1 (stereo not given)	HOP-62	inactive
CCOC(=O)C1(Br)C(c2ccccc2)NC(=O)NC1(C)Br (stereo not given)	HOP-62	inactive
Cn1ncc(NCCn2cnc3c2c(=O)n(C)c(=O)n3C)c(Cl)c1=O	HOP-62	inactive
